Assignment: determine reported IC50 for the given binders.
Target: T1, recombinant human TL1A (human, UniProt O95150 71-251)
T1 construct: The ELISA method says only 'recombinant TL1A' coated on plates; homotrimeric cytokine; also called TNFSF15; recombinant TL1A
T1 chain: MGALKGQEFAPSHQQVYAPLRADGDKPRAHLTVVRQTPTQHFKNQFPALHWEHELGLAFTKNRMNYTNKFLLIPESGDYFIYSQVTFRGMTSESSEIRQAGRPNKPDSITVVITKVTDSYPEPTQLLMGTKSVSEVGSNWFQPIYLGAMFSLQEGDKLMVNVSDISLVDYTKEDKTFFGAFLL
Assay: competition ELISA on coated recombinant TL1A; competitor biotinylated TL1A-0002
Give a bare numeral; the unit nM is implied.

stdin: Can you share its IC50? I mean this binder: TL1A-0284 (antibody, human IgG1, kappa, V domains shown, human IgG1 effector-function-minimized / human kappa) VH: QVQLVQSGAEVKKPGASVKVSCKASGYDFTYYGVSWVRQAPGQGLEWMGWISTYNDNTHYAPSLQGRVTMTTDTSTSTAYMELRSLRSDDTAVYYCARESYYGSGAFRGGMDVWGQGTTVTVSS VL: DIQMTQSPSSLSASVGDRVTITCRASQSVSSYLAWYQQKPGKAPKLLIYDASNRATGVPSRFSGSGSGTDFTLTISSLQPEDFATYYCQQRSNWPWTFGQGTKVEIKR
stdout: 10.3

stdin: Query TL1A-0291 (antibody, human IgG1, kappa, V domains shown, human IgG1 effector-function-minimized / human kappa) VH: QVQLVQSGAEVKKPGASVKVSCKASGYDFTYYGVSWVRQAPGQGLEWMGWISTYNTGTHYAQKLQGRVTMTTDTSTSTAYMELRSLRSDDTAVYYCARESYYGSGAHRGGMDVWGQGTTVTVSS VL: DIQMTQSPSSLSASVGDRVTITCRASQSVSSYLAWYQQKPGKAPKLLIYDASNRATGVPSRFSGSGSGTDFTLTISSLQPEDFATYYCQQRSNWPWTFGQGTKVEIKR next
stdout: 9

stdin: Now give it for TL1A-0261 (antibody, human IgG1, kappa, V domains shown, human IgG1 effector-function-minimized / human kappa) VH: QVQLVQSGAEVKKPGASVKVSCKASGYDYTYYGISWVRQAPGQGLEWMGWISTYNTGTHYAPSLQGRVTMTTDTSTSTAYMELRSLRSDDTAVYYCARESYYGSGAHRGGMDVWGQGTTVTVSS VL: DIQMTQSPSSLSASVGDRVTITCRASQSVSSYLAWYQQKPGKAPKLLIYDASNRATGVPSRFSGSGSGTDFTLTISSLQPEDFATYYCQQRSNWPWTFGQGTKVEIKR too.
stdout: 5.6

The reported numbers originate from patent US20240059799A1.
